B1: H2-Kb / G2 (parent)
chain 1: GEQVEQRPPHLSVREGDSAVIICTYTDPNSYYFFWYKQEPGAGLQLLMKVFSSTEINEGQGFTVLLNKKDKQLSLNLTAAHPGDSAVYFCAVRTNQGGRALIFGTGTTVSVSP
chain 2: EAAVTQSPRSKVAVTGGKVTLSCHQTNNHDYMYWYRQDTGHGLRLIHYSYVADSTEKGDIPDGYKASRPSQENFSLILELASLSQTAVYFCASSGTDTEVFFGKGTRLTVV
chain 3: not shown
chain 4: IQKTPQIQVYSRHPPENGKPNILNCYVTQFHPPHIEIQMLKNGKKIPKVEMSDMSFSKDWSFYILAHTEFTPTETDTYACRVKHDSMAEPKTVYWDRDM
chain 5: SIINFEKL

- Variants of: B1
- assay: % of reporter cells activated (NFAT-GFP), raw; further: test concentration or dose not given here
- studyConditions: with G2; scale: % of reporter cells activated
metric: ratio to parent
One number for each entry.

Example variants with recorded ratio to parent:
chain 5 E6N: 1.39
chain 5 I3F: 1.19
chain 5 S1F: 1.63

Parameter requested: ratio to parent. Apply to each item below.
1. chain 5 N4F
2. chain 5 I2K
3. chain 5 E6W

-- reply
1: 1.32; 2: 1.16; 3: 1.31
